- Test target: T1, rat serum albumin (rat, UniProt P02770 25-608)
- T1 construct: also called RSA
- Experiment notes: table of affinities (KD); BIACORE on serum albumin-coated chip according to Example 1;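 further: surface plasmon resonance with dAbs flowed over a chip carrying human, rat or mouse serum albumin, blocked uncoated flow cell as reference, KD from on- and off-rate curve fits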
Lab note - cut at 50 nM for Kd: class 1 if strictly below, class 0 if not.

>  <Binder>
DOM7h-8 (other) VL: DIQMTQSPSSLSASVGDRVTITCRASQSISSYLNWYQQKPGKAPKLLIYRNSPLQSGVPSRFSGSGSGTDFTLTISSLQPEDFATYYCQQTYRVPPTFGQGTKVEIKR

>  <Answer label>
class 0

$$$$
>  <Binder>
DOM7r-8 (other) VL: DIQMTQSPSSLSASVGDRVTITCRASQWIHRQLKWYQQKPGKAPKLLIYYASILQSGVPSRFSGSGSGTDFTLTISSLQPEDFATYYCQQTFSKPSTFGQGTKVEIKR

>  <Answer label>
class 1

$$$$
>  <Binder>
DOM7h-1 (other, also called DOM7-1) VL: DIQMTQSPSSLSASVGDRVTITCRASQSISSYLNWYQQKPGKAPKLLIYRNSFLQSGVPSRFSGSGSGTDFTLTISSLQPEDFATYYCQQTYTVPPTFGQGTKVEIKQ

>  <Answer label>
class 0

$$$$
>  <Binder>
DOM7h-2 (other) VL: DIQMTQSPSSLSASVGDRVTITCRASQKIATYLNWYQQKPGKAPKLLIYRSSSLQSAVPSRFSGSGSGTVFTLTISSLQPEDFATYYCQQTYAVPPTFGQGTKVEIKR

>  <Answer label>
class 0

$$$$
>  <Binder>
DOM7r-13 (other) VL: DIQMTQSPSSLSASVGDRVTITCRASQHIHRELRWYQQKPGKAPKLLIYQASRLQSGVPSRFSGSGSGTDFTLTISSLQPEDFATYYCQQKYLPPYTFGQGTKVEIKR

>  <Answer label>
class 0

$$$$
>  <Binder>
DOM7r-1 (other) VL: DIQTTQSPSSLSASVGDRVTITCRASQYIGRYLRWYQQKPGKAPKLLIYDSSVLQSGVPSRFSGSGSGTDFTLTISSLQPEDFATYYCQQRYRMPYTFGQGTRVEIKR

>  <Answer label>
class 1

$$$$
>  <Binder>
DOM7h-7 (other) VL: DIQMTQSPSSLSASVGDRVTITCRASQSISSYLNWYQQKPGKAPKLLIYRNSQLQSGVPSRFSGSGSGTDFTLTISSLQPEDFATYYCQQTFAVPPTFGQGTKVEIKR

>  <Answer label>
class 0

$$$$
